Test system: HCT-15 colon
procedure.text: NCI-60 one-dose screen, 48 h (100 = growth as untreated, 0 = no growth, -100 = all killed)
experimental.setup: 10 µM unless noted
Description: Growth inhibition of the HCT-15 human tumor cell line is measured as a screen for anti-cancer activity. Cells are grown in 96 well plates and exposed to the test compound for 48 hours. Compounds are tested at a single concentration, which is 10^-5 M for most compounds. The reported endpoint is percent growth (GI% or GIPRCNT), where numbers from 0 - 100% represent growth inhibition, and numbers from -100% - 0 represent cell death. For example, a value of 40 represents 60% growth inhibition. […]
Compounds without any hit were thinned out: in the full panel of roughly 83,000, 20% have a hit.
result.type: growth (%)
The reply should contain only the number, in %.

Worked cases, growth given:
> print(dat)
                                   molecule  assay.target  number
1  CC(C)=CC(=O)N[C@@H]1CC2CCC3C(CC[C@@]4(C)C3CC[C@@H]4C(C)N(C)C)[C@@]2(C)C[C@@H]1O (some centres undefined)  HCT-15 colon    2.93
2  CCC(CC)(N(CC(=O)O)CC(=O)O)C(CC)(CC)N(CC(=O)O)CC(=O)O  HCT-15 colon     131
3  NS(=O)(=O)c1ccc(N/C=C/C(=O)c2cc3ccccc3oc2=O)cc1  HCT-15 colon    93.5
4  CN1CCN(CCCOC(=O)c2c3c(n4ccccc24)C(=O)c2ncccc2C3=O)CC1  HCT-15 colon   -39.1
5  COc1cc(C2Cc3ncccc3-c3[nH]c(=O)c4cccnc4c32)cc(OC)c1OC (centres undefined)  HCT-15 colon    16.9
6  COc1cc(-c2nc3occn3c2-c2ccnc(NCCCNS(=O)(=O)c3ccccc3)n2)ccc1F  HCT-15 colon    37.5

HCT-15 colon data for `Cc1nc2sc(C(=O)Nc3ccccc3)c(N)c2cc1C(=O)/C=C/c1ccccc1` ; its growth: -32.1

Summary: `CC(C)(C)C(=O)/C=C/c1ccc([N+](=O)[O-])cc1` , HCT-15 colon, growth = 42.1

# value of growth, HCT-15 colon, item `COc1cc(/C=C2\C(=O)N(c3c(Cl)cccc3Cl)c3ccccc32)cc(OC)c1OCCCCCCn1c2ccccc2c(=O)c2ccccc21` = 108
